# Tested on: Wolbachia pipientis
# protocol.details: Anti-Wolbachia Cell-Based Screen
# Format: functional
# Design: scale not given: in the data most compounds retested in dose-response had high values
# test.settings: 5 µM
In all, about 48,000 compounds went through this assay and about 13,000 (27%) showed an effect of 50% or more. Some of the results follow.
List of Percent Effect values.
observation.type: Percent Effect (%)

{"molecule": "Cc1cc(C)c(Cn2cncn2)cc1CN1CC[C@H]2CC[C@@H](C1)N2", "observation.type": "Percent Effect", "value": 27.46}
{"molecule": "Cc1nc2c(c(NCC(c3ccccc3C)N(C)C)n1)CCNC2 (stereo not drawn)", "observation.type": "Percent Effect", "value": 96.84}
{"molecule": "Cc1[nH]c2ccc(Cl)cc2c1CCNc1ncnc2c1CCNC2", "observation.type": "Percent Effect", "value": 12.31}
{"molecule": "COc1cccc(S(=O)(=O)NC(=O)CCC2CCCC2)c1", "observation.type": "Percent Effect", "value": 93.05}
{"molecule": "COc1cccc2ccc(CN3CCN(c4cccnc4)CC3)nc12", "observation.type": "Percent Effect", "value": 1.116}
{"molecule": "COC(=O)NCC(=O)NCC(C)(C)c1cccc(C(F)(F)F)c1", "observation.type": "Percent Effect", "value": -0.4386}
{"molecule": "Cc1cnn(CC2CCCN2C(=O)CCc2c(C)nn(C)c2C)c1 (stereo not drawn)", "observation.type": "Percent Effect", "value": 103.1}
{"molecule": "CC(C)c1nc(CN(C)C(=O)c2ccccc2C2CCNC2)cs1 (stereo not drawn)", "observation.type": "Percent Effect", "value": 31.56}
{"molecule": "Cc1nc(CN2CCCC2c2c(C)nn(C)c2Cl)no1 (stereo not drawn)", "observation.type": "Percent Effect", "value": -6.071}
{"molecule": "CCC1CCCN(Cc2nc3ccccc3c(=O)[nH]2)C1 (stereo not drawn)", "observation.type": "Percent Effect", "value": -14.75}
{"molecule": "Cc1noc(Cl)c1CC(=O)NCC(C)(O)c1ccc(F)cc1F (stereo not drawn)", "observation.type": "Percent Effect", "value": 5.104}
{"molecule": "Cn1cc(N2CCCC(Oc3ccc(F)cc3Cl)C2=O)cn1 (stereo not drawn)", "observation.type": "Percent Effect", "value": 5.607}
{"molecule": "CN(Cc1cc(C(C)(C)C)n[nH]1)C(=O)c1cn2ccsc2n1", "observation.type": "Percent Effect", "value": 85.98}
{"molecule": "OCCCN1CCc2onc(C(c3ccccc3)c3ccccc3)c2C1", "observation.type": "Percent Effect", "value": 6.435}
{"molecule": "COc1cccc(S(=O)(=O)NC(=O)COC2CCCCC2)c1", "observation.type": "Percent Effect", "value": 79.48}
{"molecule": "CCC[C@H]1CN(Cc2ccc(N(C)C)nc2)C[C@@H]1NC(=O)CO", "observation.type": "Percent Effect", "value": -10.52}
{"molecule": "CC1(C)CN(C(=O)CC2CCS(=O)(=O)CC2)C[C@]1(C)O", "observation.type": "Percent Effect", "value": 8.618}
{"molecule": "COc1cccc(S(=O)(=O)NC(=O)COc2c(C)cccc2C)c1", "observation.type": "Percent Effect", "value": -5.351}
{"molecule": "Cc1nn(C)c(C)c1C1CCCN1Cc1nc2ccccc2n1C (stereo not drawn)", "observation.type": "Percent Effect", "value": 136.2}
{"molecule": "Cc1nc2ccccc2nc1CN1CCCC1c1c(C)nn(C)c1C (stereo not drawn)", "observation.type": "Percent Effect", "value": 2.386}
{"molecule": "COc1cccc2c1OCC(C(=O)N(C)CCCc1cnn(C)c1)C2 (stereo not drawn)", "observation.type": "Percent Effect", "value": -4.921}
{"molecule": "CC(=O)N1CCOC(Cc2cccc(C(F)(F)F)c2)C1 (stereo not drawn)", "observation.type": "Percent Effect", "value": -10.28}
{"molecule": "c1ccc(CCCN2CC(n3cccn3)C2)cc1", "observation.type": "Percent Effect", "value": 3.552}
{"molecule": "Cc1nc2c(c(NCC(O)c3ccccc3Cl)n1)CCNCC2 (stereo not drawn)", "observation.type": "Percent Effect", "value": -5.653}
{"molecule": "COc1cccc(S(=O)(=O)NC(=O)CC2CCCC2)c1", "observation.type": "Percent Effect", "value": 9.946}
{"molecule": "Cc1nc2c(c(NCC(O)C(F)(F)F)n1)CCNCC2 (stereo not drawn)", "observation.type": "Percent Effect", "value": -4.402}
{"molecule": "CN(C)c1cc(N(C)Cc2cc(C(C)(C)C)n[nH]2)ncn1", "observation.type": "Percent Effect", "value": 2.487}
{"molecule": "CN1CCN(S(=O)(=O)c2cccc(C#N)c2)c2ccc(F)cc21", "observation.type": "Percent Effect", "value": 4.028}
{"molecule": "COCCN1CCN(CC(C)(O)c2cccc(C(F)(F)F)c2)CC1 (stereo not drawn)", "observation.type": "Percent Effect", "value": 78.04}
{"molecule": "Cc1nn(C)c(C)c1C1CCCN1Cc1nc2ccccc2o1 (stereo not drawn)", "observation.type": "Percent Effect", "value": 33.14}
{"molecule": "CN(Cc1ccc([S+](C)[O-])cc1)c1ccc(Cl)cn1 (stereo not drawn)", "observation.type": "Percent Effect", "value": -11.61}
{"molecule": "COCC(NC(=O)c1cnn(C)c1)c1cccc(C(F)(F)F)c1 (stereo not drawn)", "observation.type": "Percent Effect", "value": -8.704}
{"molecule": "CCCn1ccnc1CN1C[C@@H](CN2CCCCC2)[C@@H](CO)C1", "observation.type": "Percent Effect", "value": -0.9532}
{"molecule": "CCN(CC)c1nc2sc(C(=O)NC(C)(C)C(=O)OC)cc2s1", "observation.type": "Percent Effect", "value": 3.402}
{"molecule": "Cc1ncc(CN(C)c2nc3c(cnn3C(C)(C)C)c(=O)[nH]2)s1", "observation.type": "Percent Effect", "value": 5.937}
{"molecule": "CN1CC(NC(=O)CCCc2cc(Cl)sc2Cl)CCC1=O (stereo not drawn)", "observation.type": "Percent Effect", "value": -9.281}
{"molecule": "CN(c1ncnc2c1CCC2)C1CCCN(c2cccnn2)C1 (stereo not drawn)", "observation.type": "Percent Effect", "value": 4.941}
{"molecule": "CCOc1ccc(S(=O)(=O)NC(=O)CCC2CCCO2)cc1 (stereo not drawn)", "observation.type": "Percent Effect", "value": 0.3257}
{"molecule": "CCOc1ccc(C(C)Nc2ncnc3c2CCNC3)cc1OCC (stereo not drawn)", "observation.type": "Percent Effect", "value": -5.441}
{"molecule": "CC1CCCN(C(=O)c2ncncc2Cl)C1 (stereo not drawn)", "observation.type": "Percent Effect", "value": -8.48}
{"molecule": "Cc1ccccc1C(CNc1ncnc2c1CCNCC2)N(C)C (stereo not drawn)", "observation.type": "Percent Effect", "value": 105.5}
{"molecule": "Cc1[nH]c2ccc(C#N)cc2c1CCNc1ncnc2c1CCNCC2", "observation.type": "Percent Effect", "value": 9.456}
{"molecule": "CC(=O)N1CCN(Cc2ccc(C(F)(F)F)cc2F)CC(O)C1 (stereo not drawn)", "observation.type": "Percent Effect", "value": -3.674}
{"molecule": "Cc1ccccc1CN(CCN(C)C)C(=O)c1ccc2nccn2c1", "observation.type": "Percent Effect", "value": -23.59}
{"molecule": "CC(O)(CN1CCN(CCO)CC1)c1cccc(C(F)(F)F)c1 (stereo not drawn)", "observation.type": "Percent Effect", "value": 117}
{"molecule": "Cn1c(CN2CCN(CC3CCCO3)CC2)nc2ccccc21 (stereo not drawn)", "observation.type": "Percent Effect", "value": -23.45}
{"molecule": "CC(=O)N1CCN(CC(C)(O)c2cccc(C(F)(F)F)c2)CC1 (stereo not drawn)", "observation.type": "Percent Effect", "value": 108.1}
{"molecule": "Cc1ccccc1C(CNc1ncnc2c1CCNC2)N(C)C (stereo not drawn)", "observation.type": "Percent Effect", "value": 84.04}

====

List of Percent Effect values.
# Test system: Wolbachia pipientis
# protocol.details: Anti-Wolbachia Cell-Based Screen
# Type: functional
# Design: scale not given: in the data most compounds retested in dose-response had high values
# test.settings: 5 µM
About 13,000 (27%) of roughly 48,000 compounds showed an effect of 50% or more. The list shows a part of the results.

{"compound": "CN1CCN(c2ccc(NCc3ccc(OC(F)(F)F)cc3)cn2)CC1", "Percent Effect": "-13.31%"}
{"compound": "Cc1nccn1CCC1CCCCN1Cc1ccc2c(c1)OCCO2 (stereo unspecified)", "Percent Effect": "18.54%"}
{"compound": "Nc1cc(CCC2CN(Cc3ccc(C(=O)O)cc3)CCO2)ccn1 (stereo unspecified)", "Percent Effect": "7.558%"}
{"compound": "Nc1cc(CCC2CN(Cc3cccc(C(=O)O)c3)CCO2)ccn1 (stereo unspecified)", "Percent Effect": "106.3%"}
{"compound": "Nc1cc(CCC2CN(Cc3ccc4c(c3)OCCO4)CCO2)ccn1 (stereo unspecified)", "Percent Effect": "90.24%"}
{"compound": "COc1cccc(CN2CCOC(Cn3nc(C)cc3C)C2)c1 (stereo unspecified)", "Percent Effect": "-2.903%"}
{"compound": "COc1ncccc1C(=O)N1CCCC1c1nc(-c2ccccc2)n[nH]1 (stereo unspecified)", "Percent Effect": "0.4619%"}
{"compound": "Nc1cc(CCC2CN(Cc3ccc4cc[nH]c4c3)CCO2)ccn1 (stereo unspecified)", "Percent Effect": "120%"}
{"compound": "CC(C)(C)c1cc(CN2CCOC(CCc3ccccc3)C2)n[nH]1 (stereo unspecified)", "Percent Effect": "14.18%"}
{"compound": "COc1ccc(CCN2CCOC(Cn3nc(C)nc3C)C2)cc1 (stereo unspecified)", "Percent Effect": "6.569%"}
{"compound": "NC(=O)c1cn[nH]c1C1CCCN1C(=O)c1ccccc1 (stereo unspecified)", "Percent Effect": "135.8%"}

Each recorded value in this set is attributed to ChEMBL document CHEMBL3988442.
